These entries and their values trace back to patent US6919086B1.

# target-of-assay: IgE antibodies of the individual allergic patient serum II/3
# assay-summary: EAST inhibition, individual serum II/3
measured-quantity: allergenic potency (Prel) at 25% inhibition (relative to native Phl p 5b)
Give the figure by itself; no unit, no explanation.

What measured allergenic potency (Prel) at 25% inhibition (relative to native Phl p 5b) goes with rPhl p 5b deletion mutant DM3 (deletion A154-T177, A220T) (protein) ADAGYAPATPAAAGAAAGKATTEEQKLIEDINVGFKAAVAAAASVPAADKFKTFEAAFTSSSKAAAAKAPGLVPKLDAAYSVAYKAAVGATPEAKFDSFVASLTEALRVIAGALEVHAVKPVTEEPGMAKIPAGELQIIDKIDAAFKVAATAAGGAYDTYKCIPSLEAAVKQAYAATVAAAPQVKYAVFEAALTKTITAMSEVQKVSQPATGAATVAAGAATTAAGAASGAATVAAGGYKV ? 0.0004

Do the same for natural Phl p 5b, purified by affinity chromatography (protein) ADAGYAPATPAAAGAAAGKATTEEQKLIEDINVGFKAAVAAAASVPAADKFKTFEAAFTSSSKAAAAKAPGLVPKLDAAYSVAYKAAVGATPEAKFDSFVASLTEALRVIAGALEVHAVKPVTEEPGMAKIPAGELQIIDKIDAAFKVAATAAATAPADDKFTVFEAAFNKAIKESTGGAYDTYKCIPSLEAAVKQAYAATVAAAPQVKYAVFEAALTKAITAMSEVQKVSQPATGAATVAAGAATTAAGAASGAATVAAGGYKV please 1

Try this binder next: rPhl p 5b point mutant PM1 (N32D, D49L, K50A) (protein) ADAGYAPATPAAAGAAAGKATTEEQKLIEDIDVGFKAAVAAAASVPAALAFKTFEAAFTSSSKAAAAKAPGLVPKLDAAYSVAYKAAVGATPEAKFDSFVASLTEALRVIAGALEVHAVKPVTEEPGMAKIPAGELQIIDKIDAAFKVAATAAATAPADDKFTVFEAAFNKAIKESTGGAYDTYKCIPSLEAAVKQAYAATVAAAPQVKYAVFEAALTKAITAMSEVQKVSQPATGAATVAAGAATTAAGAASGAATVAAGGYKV 0.595

Entry to check: rPhl p 5b deletion mutant DM1 (deletion K50-P132, D49L) (protein) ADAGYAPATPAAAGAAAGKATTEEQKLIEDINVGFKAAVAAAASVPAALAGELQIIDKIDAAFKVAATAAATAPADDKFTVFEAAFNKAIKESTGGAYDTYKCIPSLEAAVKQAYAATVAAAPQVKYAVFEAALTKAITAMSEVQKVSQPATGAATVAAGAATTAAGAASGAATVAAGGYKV 0.042
